B1: CPEB3 Ribozyme (parent)
chain: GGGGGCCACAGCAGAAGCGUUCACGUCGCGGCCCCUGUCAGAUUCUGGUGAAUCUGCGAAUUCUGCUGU

Variants of: B1
PROCEDURE_TEXT: self-cleavage, relative activity (ratio to wild type); higher = more cleavage; co-transcriptional
Binary call on self-cleavage: YES from 0.9 upward, NO beneath that.

// query Dear colleague, could you confirm whether GGGGGCCACAGCAGAAGCGUUCACGUCGCGGCCCAUGUCAGAUUCUGGUGAAUCUGCGAAUCCUGCUGU [C35A U62C] has self-cleavage at or above 0.9?
// result NO

// query Dear colleague, could you confirm whether GGGGGCCACAGCAGAAGCGUUCACGUCGCGGCCCCUGUCAGAUUCUGGUGGAUCUGCUAAUUCUGCUGU [A51G G58U] has self-cleavage at or above 0.9?
// result YES

// query Dear colleague, could you confirm whether GGGGGCCACAGCAGAAGCGUUCACGUCGCGGCCCCUGUCGGAUUCUGGUGAAUUUGCGAAUUCUGCUGU [A40G C54U] has self-cleavage at or above 0.9?
// result YES

// query Dear colleague, could you confirm whether GGGGGCCACAGCAGAAGCGUUCACGUCGCGGACCCUGUCAGAUUCUGGUGAAUCUGCGAAUUCUACUGU [C32A G65A] has self-cleavage at or above 0.9?
// result NO

// query Dear colleague, could you confirm whether GGGGGCCACAGCCGAAGCGUUCACGUCGCGGCCCCUGUCAGAUUCUCGUGAAUCUGCGAAUUCUGCUGU [A13C G47C] has self-cleavage at or above 0.9?
// result YES

// query Dear colleague, could you confirm whether GGGGGCCACAGCAGAAGGGUUCACGUCGCGGCCCCUGUCAGAUUCUGGUGAAGCUGCGAAUUCUGCUGU [C18G U53G] has self-cleavage at or above 0.9?
// result NO

// query Dear colleague, could you confirm whether GGGGGCCACAGCAGAAGCGUUCACGUCGCGACCCCUGUCAGAUUCUGGUGAAUCUGCGAGUUCUGCUGU [G31A A60G] has self-cleavage at or above 0.9?
// result NO

// query Dear colleague, could you confirm whether GGGGGCCACAGCAGAAGCGUUCACGUCGCGGCCCGUGUCAGAUUCUGGUGAAGCUGCGAAUUCUGCUGU [C35G U53G] has self-cleavage at or above 0.9?
// result NO

// query Dear colleague, could you confirm whether GGGGGCCACAGCAGAAGCGUUCACGUCGCGGGCCCUGUCCGAUUCUGGUGAAUCUGCGAAUUCUGCUGU [C32G A40C] has self-cleavage at or above 0.9?
// result NO

// query Dear colleague, could you confirm whether GGGGGCCACAGCAGAAGCGUUCACGUCGCGGCCCCUGUCAGACUCUGGUGAAUCUGCGAAUUCUGCUGA [U43C U69A] has self-cleavage at or above 0.9?
// result YES

// query Dear colleague, could you confirm whether GGGGGCCACAUCAGAAGCGUUCACGUCGCGGCCCCUGUCAGAUACUGGUGAAUCUGCGAAUUCUGCUGU [G11U U44A] has self-cleavage at or above 0.9?
// result NO

// query Dear colleague, could you confirm whether GGGGGCCACAGAAGAAGCGUUCACGUCGCGGCCCCUGUCAGACUCUGGUGAAUCUGCGAAUUCUGCUGU [C12A U43C] has self-cleavage at or above 0.9?
// result NO
